Entry source: PubChem BioAssay AID1963861

Tested on: 885724-159-R-J1-PDC KRAS PDC multicell spheroid viability
Experiment: Anticancer human tumor 885724-159-R-J1-PDC patient-derived pancreatic adenocarcinoma cell line growth inhibition [KRAS2]
Conditions: compound 0.1 µM; hits give low values
Excerpt: Multicellular complex tumor spheroid response to RAS pathway inhibitors in combination with a targeted agents in patient-derived cell lines with oncogenic KRAS variants from multiple cancer types A high-throughput screen of multi-cell type tumor spheroids was designed to identify active combinations of targeted small molecules and KRAS pathway inhibitors. […] Compounds. […] If the clinical Cmax for an agent had not been determined, the highest concentration tested was 10 microM. […]
Collected viability, T/C values appear next to each entry.
Assay endpoint: viability, T/C

compound=CN(C)C/C=C/C(=O)Nc1cc2c(Nc3ccc(F)c(Cl)c3)ncnc2cc1O[C@H]1CCOC1 result="77.5% [middle of 5 runs]"
compound="CC1OCC2(CCN(c3cnc(Sc4ccnc(N)c4Cl)c(N)n3)CC2)C1N (configuration not stated)" result="92.4% [middle of 19 runs]"
compound=CC(C)n1nc(-c2ccc3oc(N)nc3c2)c2c(N)ncnc21 result="46.5% [middle of 5 runs]"
compound=CCN1CCN(Cc2ccc(Nc3ncc(F)c(-c4cc(F)c5nc(C)n(C(C)C)c5c4)n3)nc2)CC1 result="88.7% [middle of 5 runs]"
compound="CC(=O)OC12COC1CC(O)C1(C)C(=O)C(O)C3=C(C)C(OC(=O)C(O)C(NC(=O)OC(C)(C)C)c4ccccc4)CC(O)(C(OC(=O)c4ccccc4)C21)C3(C)C (configuration not stated)" result="102% [middle of 5 runs]"
compound="C=CC(=O)N1CCN(c2nc(=O)n(-c3c(C)ccnc3C(C)C)c3nc(-c4c(O)cccc4F)c(F)cc23)C(C)C1 (configuration not stated)" result="107% [middle of 15 runs]"
compound=COc1cc2nccc(Oc3ccc(NC(=O)C4(C(=O)Nc5ccc(F)cc5)CC4)cc3)c2cc1OC result="108% [middle of 5 runs]"
compound=CC1(C)CCC(CN2CCN(c3ccc(C(=O)NS(=O)(=O)c4ccc(NCC5CCOCC5)c([N+](=O)[O-])c4)c(Oc4cnc5[nH]ccc5c4)c3)CC2)=C(c2ccc(Cl)cc2)C1 result="103% [middle of 5 runs]"
compound=COc1cc(Nc2ncc3c(n2)-c2ccc(Cl)cc2C(c2c(F)cccc2OC)=NC3)ccc1C(=O)O result="89.1% [middle of 5 runs]"
compound="CC1COCCN1c1cc(-c2ccnn2C)c2ccnc(-c3ccn[nH]3)c2n1 (configuration not stated)" result="69.9% [middle of 5 runs]"
compound="CNCc1ccccc1-c1csc(C(C)Nc2nc(C)nc3cc(OC)c(OC)cc23)c1 (configuration not stated)" result="101% [middle of 15 runs]"
compound=COc1cc(OC)cc(N(CCNC(C)C)c2ccc3ncc(-c4cnn(C)c4)nc3c2)c1 result="104% [middle of 5 runs]"
compound=COC(=O)c1ccc2c(C(=Nc3ccc(N(C)C(=O)CN4CCN(C)CC4)cc3)c3ccccc3)c(O)[nH]c2c1 result="103% [middle of 5 runs]"
compound=O=C(c1cc(Cc2n[nH]c(=O)c3ccccc23)ccc1F)N1CCN(C(=O)C2CC2)CC1 result="106% [middle of 5 runs]"
compound="CCNC(=O)CC1N=C(c2ccc(Cl)cc2)c2cc(OC)ccc2-n2c(C)nnc21 (configuration not stated)" result="102% [middle of 5 runs]"
compound="CC(C)NCC(C(=O)N1CCN(c2ncnc3c2C(C)CC3O)CC1)c1ccc(Cl)cc1 (configuration not stated)" result="83.2% [middle of 5 runs]"
compound=Cn1ncnc1[C@H]1c2n[nH]c(=O)c3cc(F)cc(c23)N[C@@H]1c1ccc(F)cc1 result="91% [middle of 5 runs]"

* * *

Test system: 885724-159-R-J1-PDC KRAS PDC multicell spheroid viability
Experiment: Anticancer human tumor 885724-159-R-J1-PDC cell line growth inhibition [KRAS2];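 further: spheroids exposed to agents for 7 days before readout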
Conditions: second compound 0.1 µM; first compound 0.00316 µM; hits give low values
Assay endpoint: viability, T/C (%)

compound="CN(C)C/C=C/C(=O)Nc1cc2c(Nc3ccc(F)c(Cl)c3)ncnc2cc1O[C@H]1CCOC1 + CC1OCC2(CCN(c3cnc(Sc4ccnc(N)c4Cl)c(N)n3)CC2)C1N" assay_endpoint="viability, T/C" result=105
compound="CC(=O)Nc1cccc(-n2c(=O)n(C3CC3)c(=O)c3c(Nc4ccc(I)cc4F)n(C)c(=O)c(C)c32)c1 + C=CC(=O)N1CCN(c2nc(=O)n(-c3c(C)ccnc3C(C)C)c3nc(-c4c(O)cccc4F)c(F)cc23)C(C)C1" assay_endpoint="viability, T/C" result=42.2
compound="Cn1ncnc1[C@H]1c2n[nH]c(=O)c3cc(F)cc(c23)N[C@@H]1c1ccc(F)cc1 + C=CC(=O)N1CCN(c2nc(=O)n(-c3c(C)ccnc3C(C)C)c3nc(-c4c(O)cccc4F)c(F)cc23)C(C)C1" assay_endpoint="viability, T/C" result=103

* * *

System: 885724-159-R-J1-PDC KRAS PDC multicell spheroid viability
Assay: Anticancer human tumor 885724-159-R-J1-PDC cell line growth inhibition [KRAS2];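 further: spheroids exposed to agents for 7 days before readout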
Conditions: second compound 0.316 µM; first compound 3.16 µM; hits give low values
Collected viability, T/C values appear next to each entry.
Assay endpoint: viability, T/C (%)

compound="CC1(C)CCC(CN2CCN(c3ccc(C(=O)NS(=O)(=O)c4ccc(NCC5CCOCC5)c([N+](=O)[O-])c4)c(Oc4cnc5[nH]ccc5c4)c3)CC2)=C(c2ccc(Cl)cc2)C1 + C=CC(=O)N1CCN(c2nc(=O)n(-c3c(C)ccnc3C(C)C)c3nc(-c4c(O)cccc4F)c(F)cc23)C(C)C1" assay_endpoint="viability, T/C" result=89.3
compound="CC(=O)OC12COC1CC(O)C1(C)C(=O)C(O)C3=C(C)C(OC(=O)C(O)C(NC(=O)OC(C)(C)C)c4ccccc4)CC(O)(C(OC(=O)c4ccccc4)C21)C3(C)C (stereo unspecified) + COc1cc2nc(C)nc(NC(C)c3cc(N)cc(C(F)(F)F)c3)c2cc1OC1CCOC1" assay_endpoint="viability, T/C" result=126
compound="COc1cc2nccc(Oc3ccc(NC(=O)C4(C(=O)Nc5ccc(F)cc5)CC4)cc3)c2cc1OC + COc1cc2nc(C)nc(NC(C)c3cc(N)cc(C(F)(F)F)c3)c2cc1OC1CCOC1" assay_endpoint="viability, T/C" result=65.8
compound="COc1cc(Nc2ncc3c(n2)-c2ccc(Cl)cc2C(c2c(F)cccc2OC)=NC3)ccc1C(=O)O + C=CC(=O)N1CCN(c2nc(=O)n(-c3c(C)ccnc3C(C)C)c3nc(-c4c(O)cccc4F)c(F)cc23)C(C)C1" assay_endpoint="viability, T/C" result=98.7
compound="CC1OCC2(CCN(c3cnc(Sc4ccnc(N)c4Cl)c(N)n3)CC2)C1N (stereo unspecified) + C=CC(=O)N1CCN(c2nc(OCC3CCCN3C)nc3c2CCN(c2cccc4cccc(C)c24)C3)CC1CC#N" assay_endpoint="viability, T/C" result=60.2
compound="CC(C)NCC(C(=O)N1CCN(c2ncnc3c2C(C)CC3O)CC1)c1ccc(Cl)cc1 (stereo unspecified) + C=CC(=O)N1CCN(c2nc(OCC3CCCN3C)nc3c2CCN(c2cccc4cccc(C)c24)C3)CC1CC#N" assay_endpoint="viability, T/C" result=69.8
compound="CC1COCCN1c1cc(-c2ccnn2C)c2ccnc(-c3ccn[nH]3)c2n1 (stereo unspecified) + COc1cc2nc(C)nc(NC(C)c3cc(N)cc(C(F)(F)F)c3)c2cc1OC1CCOC1" assay_endpoint="viability, T/C" result=53.9
compound="CCNC(=O)CC1N=C(c2ccc(Cl)cc2)c2cc(OC)ccc2-n2c(C)nnc21 (stereo unspecified) + CC1OCC2(CCN(c3cnc(Sc4ccnc(N)c4Cl)c(N)n3)CC2)C1N" assay_endpoint="viability, T/C" result=44
compound="CC1(C)CCC(CN2CCN(c3ccc(C(=O)NS(=O)(=O)c4ccc(NCC5CCOCC5)c([N+](=O)[O-])c4)c(Oc4cnc5[nH]ccc5c4)c3)CC2)=C(c2ccc(Cl)cc2)C1 + CNCc1ccccc1-c1csc(C(C)Nc2nc(C)nc3cc(OC)c(OC)cc23)c1" assay_endpoint="viability, T/C" result=82.4
compound="CC1COCCN1c1cc(-c2ccnn2C)c2ccnc(-c3ccn[nH]3)c2n1 (stereo unspecified) + C=CC(=O)N1CCN(c2nc(=O)n(-c3c(C)ccnc3C(C)C)c3nc(-c4c(O)cccc4F)c(F)cc23)C(C)C1" assay_endpoint="viability, T/C" result=51.5
compound="COc1cc2nccc(Oc3ccc(NC(=O)C4(C(=O)Nc5ccc(F)cc5)CC4)cc3)c2cc1OC + CC1OCC2(CCN(c3cnc(Sc4ccnc(N)c4Cl)c(N)n3)CC2)C1N" assay_endpoint="viability, T/C" result=60.5
compound="CC1OCC2(CCN(c3cnc(Sc4ccnc(N)c4Cl)c(N)n3)CC2)C1N (stereo unspecified) + COc1cc2nc(C)nc(NC(C)c3cc(N)cc(C(F)(F)F)c3)c2cc1OC1CCOC1" assay_endpoint="viability, T/C" result=57.2
compound="CC(C)NCC(C(=O)N1CCN(c2ncnc3c2C(C)CC3O)CC1)c1ccc(Cl)cc1 (stereo unspecified) + CC1OCC2(CCN(c3cnc(Sc4ccnc(N)c4Cl)c(N)n3)CC2)C1N" assay_endpoint="viability, T/C" result=59.7
compound="CC1(C)CCC(CN2CCN(c3ccc(C(=O)NS(=O)(=O)c4ccc(NCC5CCOCC5)c([N+](=O)[O-])c4)c(Oc4cnc5[nH]ccc5c4)c3)CC2)=C(c2ccc(Cl)cc2)C1 + CC1OCC2(CCN(c3cnc(Sc4ccnc(N)c4Cl)c(N)n3)CC2)C1N" assay_endpoint="viability, T/C" result=51.7
compound="CC1COCCN1c1cc(-c2ccnn2C)c2ccnc(-c3ccn[nH]3)c2n1 (stereo unspecified) + C=CC(=O)N1CCN(c2nc(OCC3CCCN3C)nc3c2CCN(c2cccc4cccc(C)c24)C3)CC1CC#N" assay_endpoint="viability, T/C" result=47.8
compound="CC1(C)CCC(CN2CCN(c3ccc(C(=O)NS(=O)(=O)c4ccc(NCC5CCOCC5)c([N+](=O)[O-])c4)c(Oc4cnc5[nH]ccc5c4)c3)CC2)=C(c2ccc(Cl)cc2)C1 + C=CC(=O)N1CCN(c2nc(OCC3CCCN3C)nc3c2CCN(c2cccc4cccc(C)c24)C3)CC1CC#N" assay_endpoint="viability, T/C" result=51.3
compound="COC(=O)c1ccc2c(C(=Nc3ccc(N(C)C(=O)CN4CCN(C)CC4)cc3)c3ccccc3)c(O)[nH]c2c1 + CC1OCC2(CCN(c3cnc(Sc4ccnc(N)c4Cl)c(N)n3)CC2)C1N" assay_endpoint="viability, T/C" result=17.1
compound="COc1cc2nccc(Oc3ccc(NC(=O)C4(C(=O)Nc5ccc(F)cc5)CC4)cc3)c2cc1OC + CNCc1ccccc1-c1csc(C(C)Nc2nc(C)nc3cc(OC)c(OC)cc23)c1" assay_endpoint="viability, T/C" result=61.6
compound="COc1cc(Nc2ncc3c(n2)-c2ccc(Cl)cc2C(c2c(F)cccc2OC)=NC3)ccc1C(=O)O + CC1OCC2(CCN(c3cnc(Sc4ccnc(N)c4Cl)c(N)n3)CC2)C1N" assay_endpoint="viability, T/C" result=91.2
compound="O=C(c1cc(Cc2n[nH]c(=O)c3ccccc23)ccc1F)N1CCN(C(=O)C2CC2)CC1 + C=CC(=O)N1CCN(c2nc(OCC3CCCN3C)nc3c2CCN(c2cccc4cccc(C)c24)C3)CC1CC#N" assay_endpoint="viability, T/C" result=99
compound="CCNC(=O)CC1N=C(c2ccc(Cl)cc2)c2cc(OC)ccc2-n2c(C)nnc21 (stereo unspecified) + CNCc1ccccc1-c1csc(C(C)Nc2nc(C)nc3cc(OC)c(OC)cc23)c1" assay_endpoint="viability, T/C" result=55.1
